From: patent US20080102065A1

Molecular target: T1, huEpoR protein (soluble human erythropoietin receptor) (human, UniProt P19235 25-250, limits assumed)
T1 construct: also called soluble huEpoR; biotinylated huEpoR
T1 sequence (looked up): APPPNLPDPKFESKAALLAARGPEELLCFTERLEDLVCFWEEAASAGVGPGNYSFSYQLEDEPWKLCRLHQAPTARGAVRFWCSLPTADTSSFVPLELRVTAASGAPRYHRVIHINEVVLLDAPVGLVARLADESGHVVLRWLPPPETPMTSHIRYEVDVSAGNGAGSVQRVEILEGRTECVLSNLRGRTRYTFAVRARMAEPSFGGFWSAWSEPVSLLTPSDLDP
Assay: SPR, Biacore T100; scFv-Fc captured on anti-human IgG Fc CM5 chip, EpoR as analyte; 1:1 fit;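 further: measured at 25 °C in HBS-EP buffer with 0.1 mg/ml BSA, flowed at 50 µl/min, 1 min association then dissociation (10 min human, 5 min cyno EpoR)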
pKd: −log10 of the molar value.
readout_name: pKd

* Mxb 201 (clone 201 scFv-Fc protein) (Fc fusion, Tested as scFv-Fc (maxibody) with an Fc derived from human IgG1) VH: QVQLQESGSGLARPSQTLSLTCAVSGGSISSSAFSWNWIRQPPGKGLEWIGYIYHTGITDYNPSLKSRVTISVDRSKNQFSLNVNSVTAADTAVYYCARGHGSDPAWFDPWGKGTLVTVSS VL: QSVLTQPPSVSVSPGQTASITCSGDKLGDKYASWYQQRPGQSPVLVIYRDTKRPSGIPERFSGSNSGNTATLTISGTQAVDEADYYCQAWDSTTSLVFGGGTKLTVL | 5.39
* Mxb 34 (clone 34 scFv-Fc protein) (Fc fusion, Tested as scFv-Fc (maxibody) with an Fc derived from human IgG1) VH: QVQLQQSGAEVKKPGASVKVSCKASGYTFSGYYMHWVRQAPGQGLEWMGWINPNSGSTNYAQKFLGRVTMTRDTSISTAYMELSSLRSDDTAVYYCARGHSGDYFDYWGQGTLVTVSA VL: EIVLTQSPSSLSASVGDRVTITCRASQSVSSWLAWYQQRPGQAPKLLIYAARLRGGGPSRFSGSGSGTEFTLTISSLQPEDFATYFCQQSYSTPISFGGGTKLEIK | 6.42
* Mxb 330 (clone 330 scFv-Fc protein) (Fc fusion, Tested as scFv-Fc (maxibody) with an Fc derived from human IgG1) VH: EVQLVESGGGLVQPGGSLRLSCAVSGFTFSKYWMTWVRQAPGKGLEWVANIKPDGSEKYYVESVKGRFTISRDNAKNSVYLQMNSVRAEDTAVYYCARVSRGGSFSDWGQGTLVTVSS VL: QSALTQPPSASGSPGQSVTISCTGTSSDVGAYNYVSWYQQHPGKAPKLMIYEVARRPSGVPDRFSGSKSGNTASLTVSGLQAEDEADYYCSSYAGSNNFAVFGRGTKLTVL | 7.34
* Mxb 295 (clone 295 scFv-Fc protein) (Fc fusion, Tested as scFv-Fc (maxibody) with an Fc derived from human IgG1) VH: EVQLVESGGGLVQPGGSLRLSCAASGFTFSSYAMSWVRQAPGKGLEWVSGISGSGSSEGGTYYADSVKGRFTLSRDNSKNTLYLQMNSLRAEDTALYYCVKDRPSRYSFGYYFDYWGRGTLVTVSS VL: LPVLTQPPSVSVSPGQTASIACSGNKLGDKYVSWYQQKPGQSPLLVIYQDTKRPSGIPERFSGSNSGNTATLTISGTQAMDEADYYCQAWDSSTDVVFGGGTKLTVL | 6.79
* Mxb 319 (clone 319 scFv-Fc protein) (Fc fusion, Tested as scFv-Fc (maxibody) with an Fc derived from human IgG1) VH: QVQLVQSGAEIKKPGASVKVSCKTFGSPFSTNDIHWVRQAPGQGLEWMGIIDTSGAMTRYAQKFQGRVTVTRETSTSTVYMELSSLKSEDTAVYYCAREGCTNGVCYDNGFDIWGQGTLVTVSS VL: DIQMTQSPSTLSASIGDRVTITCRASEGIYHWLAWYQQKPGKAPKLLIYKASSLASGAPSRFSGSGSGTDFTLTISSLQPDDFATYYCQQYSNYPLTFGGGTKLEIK | 6.67
* Mxb 318 (clone 318 scFv-Fc protein) (Fc fusion, Tested as scFv-Fc (maxibody) with an Fc derived from human IgG1) VH: QVQLVESGGGLVQPGGSLRLSCAVSGFTFSKYWMTWVRQAPGKGLEWVANIKPDGSEKYYVESVKGRFTISRDNAKNSVYLQMNSVRAEDTAVYYCARVSRGGSFSDWGQGTLVTVSS VL: QSVLTQPPSASGSPGQSVTISCTGTSSDVGGYNYVSWYQQHPGRAPKLIIYEVSKRPSGVPDRFSGSKSGNTASLTVSGLQADDEADYYCNSYAGSIYVFGSGTKVTVL | 6.07
* Mxb 15 (clone 15 scFv-Fc protein) (Fc fusion, Tested as scFv-Fc (maxibody) with an Fc derived from human IgG1) VH: QVQLQESGPGLVRPSGTLSLTCAVSGGSIGSSNWWSWVRQAPGKGLEWIGEISQSGSTNYNPSLKGRVTISLDRSRNQLSLKLSSVTAADTAVYYCARQLRSIDAFDIWGPGTTVTVSA VL: SYVLTQPPSVSVSPGLTATITCSGDKLGDKYASWYQQKPGQSPVLVIYQDRKRPSGIPERFSGSNSGNTATLTISGTQAVDEADYYCQAWDSDTSYVFGTGTQLTVL | 5.71
* Mxb 16 (clone 16 scFv-Fc protein) (Fc fusion, Tested as scFv-Fc (maxibody) with an Fc derived from human IgG1) VH: QVQLQESGPGLVKPSETLSLTCTVSGGYINNYYWSWIRQPPGKGLEWIGYIHYSGSTYYNPSLKSRVTISEDTSKNQFSLKLSSATAADTAVYYCARVGYYYDSSGYNLAWYFDLWGRGTLVTVSA VL: SSELTQDPAVSVALGQTVRITCQGDNLRSYSATWYQQKPGQAPVLVLFGENNRPSGIPDRFSGSKSGDTAVLTITGTQTQDEADYYCTSRVNSGNHLGVFGPGTQLTVL | 5.66
